Task for the reader: assign each of the following compounds its reported growth inhibition.
Assay: NCI Yeast Anticancer Drug Screen. Data for the rad50 strain (AID 155);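 note: 0% = growth of vehicle-only cultures of the same strain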
Conditions: S. cerevisiae rad50 strain growth inhibition; at 5.0 µM (retest, dose inferred, filed as 0.5); active compounds read high
The panel holds about 79,000 compounds, 15% with a hit somewhere; the sample as a whole holds those more often.
Report the value in % with no unit label.

Exercise: Return reported growth inhibition; argument: Cc1cc(=O)oc2c(C)c3oc(CBr)cc3cc12
Key: -11

Exercise: Return reported growth inhibition; argument: C=C1C(=O)OC2C1CC1OC2C(C)CCC/C(C)=C\CCC1(C)O (centres undefined)
Key: 2

Exercise: Return reported growth inhibition; argument: O=C(NNc1ccc(F)cc1)C12CC3CC(CC(C3)C1)C2
Key: 9

Exercise: Return reported growth inhibition; argument: CC1=CC2C(O)(CC(CO)=CC3C4C(C)(C)C4(OC(=O)c4ccccc4)C(OC(=O)c4ccccc4)C(C)C32O)C1=O (centres undefined)
Key: 95

Exercise: Return reported growth inhibition; argument: CCCCCCC(O)C(CO)CCCCC (centres undefined)
Key: 0

Exercise: Return reported growth inhibition; argument: CN(C)CC1CCC/C(=C\c2ccc(Cl)cc2)C1=O (centres undefined)
Key: -15

Exercise: Return reported growth inhibition; argument: CCOc1c(Br)cc(Br)cc1/C=N/NS(=O)(=O)c1ccc(C)cc1
Key: 41

Exercise: Return reported growth inhibition; argument: O=C(O)C1C(C(=O)O)C23CC2(C(=O)O)C2(C(=O)O)CCC3=C3CCCC312 (centres undefined)
Key: 3

Exercise: Return reported growth inhibition; argument: CN(C)CCC1(C2=CCCC2)CC/C(=C\c2ccccc2Cl)C1=O (centres undefined)
Key: -1

Exercise: Return reported growth inhibition; argument: Cc1ccc([PH+](CC[PH+](c2ccccc2)c2ccccc2)c2ccc(C)cc2)cc1.Cc1ccc([PH+](CC[PH+](c2ccccc2)c2ccccc2)c2ccc(C)cc2)cc1.[Pt]
Key: 40

Exercise: Return reported growth inhibition; argument: C[C@@]12C(=O)OC(=O)[C@]1(C)[C@H]1CC[C@@H]2O1
Key: 96

Exercise: Return reported growth inhibition; argument: C=CC(=O)NC(=O)Nc1ccc(Cl)cc1
Key: 18

Exercise: Return reported growth inhibition; argument: CC(C)c1ccc2nc3ccc(C(=O)NCCN4CCN(c5ccccc5)CC4)cn3c(=O)c2c1
Key: 18

Exercise: Return reported growth inhibition; argument: O=[N+]([O-])c1ccc(-c2nc3ccc(F)cc3[nH]2)o1
Key: 73

Exercise: Return reported growth inhibition; argument: Fc1ccc(CN2COc3c(cc(Cl)c4cccnc34)C2)cc1
Key: 9

Exercise: Return reported growth inhibition; argument: N#CSc1cc(SC#N)c2ccccc2c1N
Key: 0

Exercise: Return reported growth inhibition; argument: O=Nc1c(O)ccc2ccccc12.[Fe].[Na+]
Key: 7

Exercise: Return reported growth inhibition; argument: CC1=NC(C)=C(/C(C)=N/NC(=O)c2ccccc2O)C(C)/C1=C(/C)NNC(=O)c1ccccc1O (centres undefined)
Key: 16

Exercise: Return reported growth inhibition; argument: CCOC(=O)/C(=C/c1ccc2ccccc2c1)P(=O)(OCC)OCC
Key: -17

Exercise: Return reported growth inhibition; argument: COc1ccc2c(c1)C(=O)C(Br)CC2 (centres undefined)
Key: 16

Exercise: Return reported growth inhibition; argument: c1ccc2c(c1)[nH]c1cc3ccncc3cc12
Key: -45

Exercise: Return reported growth inhibition; argument: N#Cc1snc2sc(=O)sc12
Key: 99

Exercise: Return reported growth inhibition; argument: CN(C)c1ccc(C(O)(Cc2cccc(C#N)c2)c2ccc(N(C)C)cc2)cc1
Key: 2

Exercise: Return reported growth inhibition; argument: CCS(=O)(=O)/C=C(\C#Cc1ccccc1)c1ccccc1
Key: 9

Exercise: Return reported growth inhibition; argument: Cc1ccc(NC(=O)c2cc3ccccc3c(N=Nc3cc(S(=O)(=O)O)ccc3O)c2O)c(C)c1
Key: 33

Exercise: Return reported growth inhibition; argument: FC(F)(F)c1nc(S)cc(=S)[nH]1
Key: 1

Exercise: Return reported growth inhibition; argument: CC1(C(Cl)(Cl)Cl)C=CC(O)(C#CC2(O)C=CC(C)(C(Cl)(Cl)Cl)C=C2)C=C1 (centres undefined)
Key: 94

Exercise: Return reported growth inhibition; argument: O=C1C2(Cl)C(Cl)=C(Cl)C1(Cl)C1(Cl)C(Cl)=C(Cl)C(=O)C21Cl (centres undefined)
Key: 55

Exercise: Return reported growth inhibition; argument: CCCCCc1ccc2cc(C(=O)O)[nH]c2c1
Key: 4
